System: DU-4475
Assay: drug sensitivity score (DSS), CellTiter-Blue viability (DSS (AUC-based score)); higher = stronger viability inhibition; extreme values may be limits of the assay
Details: incubation time: 72 h
Please provide measured drug sensitivity score for the entries that follow.

A selection of reference data follows.
| compound | experimental_readout | observed_value |
| --- | --- | --- |
| Nc1ncn([C@@H]2O[C@H](CO)[C@@H](O)[C@H]2O)c(=O)n1 | drug sensitivity score | 0 |
| C[C@]1(O)C[C@@H](c2nc(-c3ccc4ccc(-c5ccccc5)nc4c3)c3c(N)nccn32)C1 | drug sensitivity score | 0 |
| COc1cc(F)c(F)c(Nc2ccc(I)cc2F)c1NS(=O)(=O)C1(C[C@H](O)CO)CC1 | drug sensitivity score | 28.1 |

Provide drug sensitivity score for all items below, preserving their order.
1. CC(=O)c1c(C)c2cnc(Nc3ccc(N4CCNCC4)cn3)nc2n(C2CCCC2)c1=O
2. O=C1CN2Cc3c(ccc(Cl)c3Cl)N=C2N1 [Anagrelide]
3. Oc1ncnc2[nH]ncc12
4. Cc1sc2c(c1C)C(c1ccc(Cl)cc1)=N[C@@H](CC(=O)OC(C)(C)C)c1nnc(C)n1-2 [(+)JQ1]

[0, 0, 0, 17.1]
